# System: SW-620 colon
# protocol description: NCI-60 one-dose screen, 48 h
# measurement conditions: 10 µM unless noted
About 83,000 compounds went through this panel and 20% of them were active in at least one assay; those are over-represented in the sample as a whole. Activity calls are given as the source filed them. The calls were made as follows: active = growth percent below 10; inactive = the rest.
Choose the fitting class; nothing outside Yes = active, No = inactive is accepted.

Hi, do you know how CN1C(=O)CCC(N2C(=O)c3cccc(NCCOCCOCCNC(=O)c4cc5c(o4)C(=O)c4ccccc4C5=O)c3C2=O)C1=O (stereo not given) came out in this test?
Yes

For "O=C(NCc1cn(Cc2cccc(Oc3ccccc3)c2)nn1)c1cccnc1NCc1ccc(Cl)cc1" then?
No

For "CN(C)CCn1cc(-c2ccc3c(Nc4ccc(CC(=O)Nc5cccc(F)c5)cc4)ncnc3c2)cn1" then?
Yes

For Nc1ccn(C2OC(F)(CO)C(O)C2F)c(=O)n1 (stereo not given) then?
No

For "CCNCCNc1cc(-c2ccc(C#N)cc2)c(C#N)c2nc3ccccc3n12" then?
Yes

For "CC(/C=N/NC(=O)c1cc(-c2ccco2)[nH]n1)=C\c1ccccc1" then?
No

For "Cc1nc2ccc(C(=O)NCc3cc(C(=O)O)c(C)o3)cc2nc1C" then?
No

For "Nc1ccc(S(=O)(=O)Nc2ccsc2-c2nc(-c3ccccc3)no2)cc1" then?
No

* * *

# Test system: SNB-75 CNS
# protocol description: NCI-60 one-dose screen, 48 h (100 = growth as untreated, 0 = no growth, -100 = all killed)
# measurement conditions: 10 µM unless noted
Compounds without any hit were thinned out: in the full panel of roughly 83,000, 20% have a hit.
measured parameter: growth (%)
A number alone suffices; assume %.

Example cases with answers are listed next.
>  <compound>
CCN(CC)CCOC(=O)N1c2ccccc2Sc2ccccc21

>  <unit text>
%

>  <growth>
84.2

$$$$
>  <compound>
Cc1cccc(-c2cc(O)c(C(=O)N3CCOCC3)s2)c1

>  <unit text>
%

>  <growth>
33.5

$$$$
>  <compound>
CCn1c(Sc2nnc(NC(=O)CCN3CCCC3)s2)nc2c1c(=O)n(C)c(=O)n2C

>  <unit text>
%

>  <growth>
97.8

$$$$
>  <compound>
Cc1ccc(/C(=N\N=C(N)N)c2ccccc2)cc1

>  <unit text>
%

>  <growth>
28.5

$$$$
>  <compound>
COc1cc2ccccc2cc1C(=O)NC(=S)Nc1ccc(-c2nc3ccccc3[nH]2)cc1

>  <unit text>
%

>  <growth>
54.4

$$$$
>  <compound>
Nc1c(-c2nc3ccccc3c(=O)[nH]2)nnn1-c1ccc(Cl)cc1

>  <unit text>
%

>  <growth>
24.7

$$$$

Record lookup: for SNB-75 CNS, what growth belongs to "O=C(Nc1cccc2[nH]c(C(F)(F)F)nc12)c1cc(Cl)ccc1Cl" ?
75.6

For CN1C[C@@H](c2ccc(Cl)cc2)[C@]2(NC(=S)N(c3ccc(F)c(Cl)c3)C2=O)[C@@]12C(=O)NC1C=CC(Cl)=C[C@H]12 (stereo not given in full) then?
53.2

For "NC(=Nc1ccc(N)cc1)C(N)=Nc1ccc(N)cc1" then?
91.8

For "O=C1Nc2ccccc2/C1=N/N=C/c1c[nH]c2ccccc12" then?
45.5

* * *

# Tested on: HCC-2998 colon
# protocol description: NCI-60 one-dose screen, 48 h (100 = growth as untreated, 0 = no growth, -100 = all killed)
# measurement conditions: 10 µM unless noted
This is part of a sample that, as a whole, favours compounds with a hit. Of some 83,000 tested, about 20% had one in any assay. Activity calls are given as the source filed them. The calls were made as follows: active = growth percent below 10; inactive = the rest.
measured parameter: growth

Example cases with answers are listed next.
>  <molecule>
O[C@H]1CO[C@H]2[C@@H]1OC[C@@H]2Oc1ccc(Nc2ccnc(Nc3ccc(O[C@H]4CO[C@H]5[C@@H]4OC[C@@H]5O)c(Cl)c3)n2)cc1Cl

>  <test target>
HCC-2998 colon

>  <growth>
17.1% (inactive)

$$$$
>  <molecule>
COc1cc(CNC(=O)/C=C/C=C/c2ccc3c(c2)OCO3)ccc1OCc1cn(-c2ccc(Cl)c(Cl)c2)nn1

>  <test target>
HCC-2998 colon

>  <growth>
51.1% (inactive)

$$$$
>  <molecule>
Nc1nc(I)c2ncn(C3OC(CO)C(O)C3O)c2n1 (centres undefined)

>  <test target>
HCC-2998 colon

>  <growth>
103% (inactive)

$$$$

I would be grateful if you could share the reported growth for "O=C(NCCOCCOCCOCCNC(=O)c1cc2c(o1)C(=O)c1ccccc1C2=O)NC12CC3CC(CC(C3)C1)C2" .
-67.6% (active)

* * *

Catalogue of growth readings, one per entry.
# Test system: SF-539 CNS
# protocol description: NCI-60 one-dose screen, 48 h (100 = growth as untreated, 0 = no growth, -100 = all killed)
# measurement conditions: 10 µM unless noted
This is part of a sample that, as a whole, favours compounds with a hit. Of some 83,000 tested, about 20% had one in any assay.
A number alone suffices; assume %.

Example cases with answers are listed next.
>  <molecule>
CC(=O)Nc1nccs1

>  <measured parameter>
growth

>  <reading>
97

$$$$
>  <molecule>
CN(CCCCCCCCNc1ccnc2ccccc12)Cc1ccc(-c2ccc(-c3ccc(C#N)cc3)s2)cc1

>  <measured parameter>
growth

>  <reading>
-89

$$$$
>  <molecule>
Cc1ccc(-n2nnc(C3=NCCc4c3[nH]c3ccc(Cl)cc43)c2C)cc1

>  <measured parameter>
growth

>  <reading>
92.9

$$$$
>  <molecule>
CC(=O)NCC(=O)Nc1ccc(-c2nnc3ccccn23)nc1.CC(=O)NCC(=O)Nc1ccc(-c2nnc3ccccn23)nc1.[Pt+2]

>  <measured parameter>
growth

>  <reading>
110

$$$$
>  <molecule>
COc1cc(-c2ncn(/C=C\c3nnco3)n2)cc(C(F)(F)F)c1

>  <measured parameter>
growth

>  <reading>
6.11

$$$$

Record lookup: for SF-539 CNS, what growth belongs to "COc1ccc(/C=C(\C#N)n2nnc3ccccc32)cc1" ?
-46.4

For "Cc1cc(Cc2cc(C)cc(C(C)(C)C)c2O)c(O)c(C(C)(C)C)c1" then?
62.4

For "C[C@@H](C[C@H](CCOCc1cccnc1)c1ccccc1)c1cc2ccccc2o1" then?
98.8

For CCOC(=O)c1nnn(C(Cc2ccccc2Cl)C(=O)OCC)c1C (centres undefined) then?
107

For "COc1ccccc1NC(=O)Nc1ccc(-c2nc3ccccc3o2)cc1" then?
96.7

For "C=C(Cl)COC(=O)C(C)(C)O" then?
102

For COC1(CC[C@@H](C)COC2OC(CO)C(O)C(O)C2O)O[C@H]2C[C@H]3[C@@H]4CC=C5C[C@@H](OC6OC(CO)C(OC7OC(C)C(O)C(O)C7O)C(O)C6OC6OC(C)C(O)C(O)C6O)CC[C@]5(C)[C@H]4CC[C@]3(C)[C@H]2[C@@H]1C (some centres undefined) then?
-99

* * *

# Tested on: KM12 colon
# protocol description: NCI-60 one-dose screen, 48 h
# measurement conditions: 10 µM unless noted
About 83,000 compounds went through this panel and 20% of them were active in at least one assay; those are over-represented in the sample as a whole. Calls of active or inactive are those of the source. Rule for the calls: active = growth percent below 10; inactive = the rest.
Choose the fitting class; nothing outside t (active), f (inactive) is accepted.

Reference set, count: 2
>  <molecule>
CC1(C)N=C(N)N=C(N)N1c1cccc(CN)c1

>  <assigned category>
f

$$$$
>  <molecule>
O=C1Nc2ccccc2/C1=N/N=C/c1ccsc1

>  <assigned category>
f

$$$$

Hi, do you know how "CN(CCC(=O)/C(=C\c1ccccc1)c1ccc(Cl)cc1)Cc1ccccc1" came out in this test?
f

For "CNC(=O)c1cc(Oc2ccc3nc(NC(=O)Nc4cc(C(F)(F)F)cc(C(F)(F)F)c4)sc3c2)ccn1" then?
t

For "CC(=O)c1cc2c(o1)C(=O)c1ccccc1C2=O" then?
t

* * *

# Tested on: U251 CNS
# protocol description: NCI-60 one-dose screen, 48 h (100 = growth as untreated, 0 = no growth, -100 = all killed)
# measurement conditions: 10 µM unless noted
# Experimental: Growth inhibition of the U251 human tumor cell line is measured as a screen for anti-cancer activity. Cells are grown in 96 well plates and exposed to the test compound for 48 hours. Compounds are tested at a single concentration, which is 10^-5 M for most compounds. The reported endpoint is percent growth (GI% or GIPRCNT), where numbers from 0 - 100% represent growth inhibition, and numbers from -100% - 0 represent cell death. For example, a value of 40 represents 60% growth inhibition. […]
About 83,000 compounds went through this panel and 20% of them were active in at least one assay; those are over-represented in the sample as a whole.
growth of 70% or higher: Yes. Under 70%: No.

Reference set, count: 6
>  <molecule>
CCCNCC(=O)Nc1ccc(C(=O)OC(C)(C)CC)cc1

>  <assigned category>
Yes

$$$$
>  <molecule>
COc1ccc(/C(C)=C(\c2ccc(Cl)cc2)c2ccc(OCCCN(C)C)cc2)cc1F

>  <assigned category>
No

$$$$
>  <molecule>
CC(C)OC(=O)OCOP(=O)(OCOC(=O)OC(C)C)C1CCCN(O)C1=O (centres undefined)

>  <assigned category>
No

$$$$
>  <molecule>
COc1cc2c(c(OC)c1OC)C(=O)/C(=C/c1cc(C)c(O)c(C)c1)S2

>  <assigned category>
No

$$$$
>  <molecule>
C=C1c2c(C)nn(-c3ccc(S(N)(=O)=O)cc3)c2N(C)C23CC1C1(C)c4c(C)nn(-c5ccc(S(N)(=O)=O)cc5)c4N(C)C(C)(CC12)C3 (centres undefined)

>  <assigned category>
No

$$$$
>  <molecule>
CCN(CC)N=Nc1nn(C(=O)Nc2ccc(Cc3ccccc3)cc2)c2ccc(Cl)cc12

>  <assigned category>
Yes

$$$$

Entry "CC(=O)Nc1ccc2c(c1)Cc1c(F)cccc1-2" : is its growth no less than 70%?
Yes
